Values were extracted from patent US20220064329A1.

binders and their reported TGT activity (% FVIIa)
# SYSTEM UNDER TEST: T1, recombinant human activated Factor VII (FVIIa) (human, UniProt P08709 61-212; P08709 213-466, Gla domain: ten glutamate residues may be gamma-carboxylated)
# T1 sequence 1: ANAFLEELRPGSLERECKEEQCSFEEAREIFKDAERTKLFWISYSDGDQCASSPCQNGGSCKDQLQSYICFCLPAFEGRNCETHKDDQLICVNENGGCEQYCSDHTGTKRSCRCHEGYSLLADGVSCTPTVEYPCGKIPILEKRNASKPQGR
# T1 sequence 2: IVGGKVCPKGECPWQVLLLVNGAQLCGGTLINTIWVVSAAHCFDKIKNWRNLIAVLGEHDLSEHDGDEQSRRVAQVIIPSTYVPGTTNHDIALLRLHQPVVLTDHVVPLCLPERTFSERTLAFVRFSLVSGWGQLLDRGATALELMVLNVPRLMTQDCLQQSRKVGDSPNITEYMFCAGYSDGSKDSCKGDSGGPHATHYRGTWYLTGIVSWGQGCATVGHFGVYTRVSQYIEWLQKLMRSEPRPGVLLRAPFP
# ASSAY TEXT: cell-based or functional assay
Express it in % FVIIa; write the number only.

1. mAb0013 (antibody, V domains shown) VH: QIQLVQSGPELKKPGETVKISCKASGYTFTDYSIQWVKQAPGKGLKWMGWINTETGKPSYADDLKGRSAFSLETSGSTAYLQISNLKNEDMATYFCVRDDYYGREDYWGQGTTLTVSS VL: DIVMTQSPSSLTVTAGEKVTVSCKSSQSLLNSGDQKNYLTWYQQKPGQPPKLLIYWASTRESGVPDRFTGSGSGTDFTLTISSVQAEDLAVYYCQNDFSYPYTFGGGTKLEIK ... 128

## Input Please report TGT activity (% FVIIa) for the following binder: mAb0578 (antibody, V domains shown, fully murine, hybridoma-derived; also called 12F19) VH: QVQLQQSGAELMKPGASVKISCKATGYTFNTYWIEWVKQRPGHGLEWIGEILPGRGTTNYNENFKGKATITADISSNTAYLQLSSLTGEDSAVYYCARLTPLSLRTGYWGQGTTLTVSS VL: DILLTQSPAILSVSPGERVSFSCRASQSIGTSIHWYQQRTNGSPRLLIKYASESISGIPSRFSGSGSGTDFTLSINSVESEDIADYYCQQSNSWPFTFGSGTKLEIK
## Output 91
